B1: TPR t1 (parent)
chain: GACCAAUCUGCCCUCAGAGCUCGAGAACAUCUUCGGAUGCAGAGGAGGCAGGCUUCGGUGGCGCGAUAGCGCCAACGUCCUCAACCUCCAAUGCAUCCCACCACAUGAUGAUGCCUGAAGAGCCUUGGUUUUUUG

- Variants of: B1
- run.description: polymerase ribozyme fitness, log enrichment relative to wild type (log ratio); higher = more active; in vitro selection for triplet polymerase activity
Form field: polymerase ribozyme fitness (log ratio) (one value per entry).
Please state the value as a number alone, without comment.

// solved cases for polymerase ribozyme fitness (log ratio) follow
{"mutation.name": "C86U C94U C115A", "polymerase ribozyme fitness (log ratio)": -0.874}
{"mutation.name": "A18C A83C A91G A111C", "polymerase ribozyme fitness (log ratio)": -3.03}
{"mutation.name": "G10A G63A C86U", "polymerase ribozyme fitness (log ratio)": -1.07}
{"mutation.name": "C62A U129A", "polymerase ribozyme fitness (log ratio)": -2.21}

Which polymerase ribozyme fitness (log ratio) reading was recorded for the variant C15G G44C G47A G69U G135U ?
-3.36

Which polymerase ribozyme fitness (log ratio) reading was recorded for the variant A18G A68G U116G C123U ?
-5.7

Which polymerase ribozyme fitness (log ratio) reading was recorded for the variant U9C A111U A121C U126A U130G ?
-4.36

Which polymerase ribozyme fitness (log ratio) reading was recorded for the variant C12G A37U A105C U112C ?
-0.116

Which polymerase ribozyme fitness (log ratio) reading was recorded for the variant C11U G77U A111G U112C G122A ?
-0.084

Which polymerase ribozyme fitness (log ratio) reading was recorded for the variant A24G A26G A90C C115U ?
-2.12

Which polymerase ribozyme fitness (log ratio) reading was recorded for the variant G25U C64G C88A G110A G120C C123U ?
-6.08
